tested on: MCF-7; assay: cells; format: cell-based, human; conditions: read-out: MCF-7 (IC50); MTT; mean ± S.D. of three experiments
MEASUREMENT_KIND: IC50 (µM)
Give the number; µM is assumed, so skip it.

Briefly, IC50 measured for Cc1nc2ccccc2n(CC(=O)Nc2ccc(C(=O)Nc3cccc(Cl)c3)cc2)c1=O [Compound 17b] : 2.8
